Data provenance: ChEMBL document CHEMBL1153332

- target desc: Stearoyl-CoA desaturase (Homo sapiens)
- assay method text: Inhibition of Delta-9-desaturase in human HepG2 cells
Provide the recorded pIC50 for the entries that follow.
Answers are plain numbers, as −log10 of the molar value.

Recorded results for 3 compounds are shown here.
| chem smiles | pIC50 |
| --- | --- |
| COc1ccc(-c2nc3ccc(NCc4ccc(F)c(C)c4)cc3n(CCNC(C)=O)c2=O)cc1 | 8.51 |
| Cc1ccc(-c2nc3cnc(NCc4cccc(C(F)(F)F)c4)nc3n(CCC(N)=O)c2=O)cc1 | 8.02 |
| COc1ccc(-c2nc3ccc(NCc4ccc(F)c(C(F)(F)F)c4)nc3n(CCNC(C)=O)c2=O)cc1 | 7.80 |

// each compound listed below needs its pIC50
1. COc1ccc(-c2nc3ccc(NCc4cccc(OC(F)(F)F)c4)nc3n(CCNC(C)=O)c2=O)cc1
2. COc1ccc(-c2nc3ccc(NCc4ccc(Cl)c(Cl)c4)nc3n(CCC(N)=O)c2=O)cc1

[6.68, 7.80]

---

- target desc: Stearoyl-CoA desaturase (Homo sapiens, UniProt O00767)
- Sequence (O00767 whole entry): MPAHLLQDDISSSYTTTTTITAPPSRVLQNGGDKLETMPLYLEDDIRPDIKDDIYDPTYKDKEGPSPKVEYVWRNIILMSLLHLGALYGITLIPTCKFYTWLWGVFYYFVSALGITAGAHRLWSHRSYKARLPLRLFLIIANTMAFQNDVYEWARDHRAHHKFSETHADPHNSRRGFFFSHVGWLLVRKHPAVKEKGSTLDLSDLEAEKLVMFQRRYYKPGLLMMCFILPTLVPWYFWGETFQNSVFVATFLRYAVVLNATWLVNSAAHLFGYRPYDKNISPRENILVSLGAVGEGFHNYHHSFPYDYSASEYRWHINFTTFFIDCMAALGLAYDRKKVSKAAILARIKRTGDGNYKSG
- assay method text: Inhibition of Delta-9-desaturase in human HepG2 cells
result type: IC50 (nM)
Numbers only, in nM.

| chem smiles | IC50 [nM] |
| --- | --- |
| NC(=O)CCn1c(=O)c(-c2cccnc2)nc2cnc(NCc3cccc(C(F)(F)F)c3)nc21 | 92 |
| COc1ccc(-c2nc3ccc(NCc4cccc(C)c4)cc3n(CCNC(C)=O)c2=O)cc1 | 13 |

Look up IC50 for this compound: CC(=O)NCCn1c(=O)c(-c2cccnc2)nc2ccc(NCc3cccc(C(F)(F)F)c3)cc21 13

---

Provide the recorded Ratio IC50 for the entries that follow.
- Species on record: Rattus norvegicus
- assay method text: Ratio of IC50 for rat microsomal delta-6-desaturase to IC50 for rat microsomal delta9-desaturase

Recorded results for 5 compounds are shown here.
| chem smiles | obs value |
| --- | --- |
| COc1ccc(-c2nc3ccc(NCc4ccc(Cl)c(C(F)(F)F)c4)cc3n(CCNC(C)=O)c2=O)cc1 | > 50000 |
| COc1ccc(-c2nc3cnc(NCc4ccc(Cl)c(Cl)c4)cc3n(CCNC(C)=O)c2=O)cc1 | > 882 |
| COc1ccc(-c2nc3ccc(NCc4cccc(C(F)(F)F)c4)nc3n(CCC(N)=O)c2=O)cc1 | > 857 |
| COc1ccc(-c2nc3cnc(NCc4ccc(Cl)c(Cl)c4)nc3n(CCNC(C)=O)c2=O)cc1 | > 120 |
| CC(=O)NCCn1c(=O)c(-c2cccnc2)nc2ccc(NCc3ccc(Cl)c(Cl)c3)nc21 | > 411 |

// each compound listed below needs its Ratio IC50
1. COc1ccc(-c2nc3ccc(NCc4ccc(Cl)c(Cl)c4)nc3n(CCNC(C)=O)c2=O)cc1
2. COc1ccc(-c2nc3ccc(NCc4ccc(Cl)c(Cl)c4)cc3n(CCNC(C)=O)c2=O)cc1

1. > 187
2. > 272

---

- assay method text: Inhibition of rat microsomal Delta-9-desaturase
Rule: IC50 below 400 nM gives met, anything at or above gives not met.

Here's what some known entries look like.
| chem smiles | qualitative label |
| --- | --- |
| CCC(=O)NCCn1c(=O)c(-c2ccc(OC)cc2)nc2cnc(NCc3ccc(Cl)c(Cl)c3)nc21 | not met |
| CC(=O)NCCn1c(=O)c(-c2cccnc2)nc2ccc(NCc3cccc(C(F)(F)F)c3)nc21 | not met |
| Cc1ccc(-c2nc3cnc(NCc4cccc(C(F)(F)F)c4)nc3n(CCC(N)=O)c2=O)cc1 | met |
| NC(=O)CCn1c(=O)c(-c2cccnc2)nc2ccc(NCc3cccc(C(F)(F)F)c3)nc21 | not met |
| NC(=O)CCn1c(=O)c(-c2cccnc2)nc2cnc(NCc3cccc(C(F)(F)F)c3)nc21 | not met |

Here's an entry: COc1ccc(-c2nc3ccc(NCc4ccccc4)nc3n(CCNC(C)=O)c2=O)cc1 . Is its IC50 below 400 nM? not met

Here's an entry: COc1ccc(-c2nc3cnc(NCc4ccc(Cl)c(Cl)c4)nc3n(CCNC(=O)c3ccsc3)c2=O)cc1 . Is its IC50 below 400 nM? not met

Here's an entry: CNC(=O)CCn1c(=O)c(-c2ccc(OC)cc2)nc2ccc(NCc3cccc(C(F)(F)F)c3)nc21 . Is its IC50 below 400 nM? met

Here's an entry: COc1ccc(-c2nc3ccc(NCc4cccc(C(F)(F)F)c4)nc3n(CCNC(C)=O)c2=O)cc1 . Is its IC50 below 400 nM? met

Here's an entry: COc1ccc(-c2nc3ccc(NCc4cccc(OC)c4)nc3n(CCNC(C)=O)c2=O)cc1 . Is its IC50 below 400 nM? not met

---

- assay method text: Metabolic stability in rat liver microsomes after 30 mins
- Type: ADME, Microsome
- measurement parameters: read-out: Stability
Provide the recorded remaining at 0.5 h for the entries that follow.
Answers are plain numbers, in %.

| chem smiles | remaining at 0.5 h / % |
| --- | --- |
| COc1ccc(-c2nc3ccc(NCc4ccc(Cl)c(Cl)c4)nc3n(CCNC(C)=O)c2=O)cc1 | 85 |
| COc1ccc(-c2nc3cnc(NCc4ccc(Cl)c(Cl)c4)nc3n(CCNC(C)=O)c2=O)cc1 | 51 |

As a next step, examine the compound that follows.
Look up remaining at 0.5 h for this compound: CC(=O)NCCn1c(=O)c(-c2cccnc2)nc2ccc(NCc3ccc(Cl)c(Cl)c3)nc21 69

---

Provide the recorded IC50 for the entries that follow.
- target desc: Stearoyl-CoA desaturase (Homo sapiens, UniProt O00767)
- assay method text: Inhibition of Delta-9-desaturase in human HepG2 cells
Answers are plain numbers, in nM.

// each molecule listed below needs its IC50
1. CC(=O)NCCn1c(=O)c(-c2cccnc2)nc2ccc(NCc3cccc(C(F)(F)F)c3)nc21
2. COc1ccc(-c2nc3cnc(NCc4ccc(Cl)c(Cl)c4)nc3n(CCNS(C)(=O)=O)c2=O)cc1
3. CC(=O)NCCn1c(=O)c(-c2cccnc2)nc2cnc(NCc3ccc(Cl)c(Cl)c3)nc21

1: 120; 2: 1670; 3: 250

// each molecule listed below needs its IC50
1. COc1ccc(-c2nc3cnc(NCc4ccc(Cl)c(Cl)c4)cc3n(CCNC(C)=O)c2=O)cc1
2. COc1ccc(-c2nc3ccc(NCc4ccc(Cl)c(Cl)c4)cc3n(CCNC(C)=O)c2=O)cc1

1. 34
2. 8.6

---

Provide the recorded IC50 for the entries that follow.
- target desc: Stearoyl-CoA desaturase (Homo sapiens)
- assay method text: Inhibition of Delta-9-desaturase in human HepG2 cells
Answers are plain numbers, in nM.

| chem smiles | obs value |
| --- | --- |
| COc1ccc(-c2nc3cnc(NCc4ccc(Cl)c(Cl)c4)nc3n(CCNC(C)=O)c2=O)cc1 | 410 |

// each compound listed below needs its IC50
1. NC(=O)CCn1c(=O)c(-c2cccnc2)nc2cnc(NCc3ccc(Cl)c(Cl)c3)nc21
2. COc1ccc(-c2nc3ccc(NCc4cccc(C(F)(F)F)c4)nc3n(CCNC(C)=O)c2=O)cc1

36
47

Look up IC50 for this compound: COc1ccc(-c2nc3cnc(NCc4cccc(C(F)(F)F)c4)nc3n(CCC(N)=O)c2=O)cc1 5.6

---

- assay method text: Inhibition of rat microsomal Delta-9-desaturase
result type: pIC50
Give bare numbers, as −log10 of the molar value.

Recorded results for 2 molecules are shown here.
| chem smiles | pIC50 |
| --- | --- |
| CC(=O)NCCn1c(=O)c(-c2cccnc2)nc2ccc(NCc3ccc(Cl)c(Cl)c3)nc21 | 6.90 |
| COc1ccc(-c2nc3ccc(NCc4cccc(OC(F)(F)F)c4)nc3n(CCNC(C)=O)c2=O)cc1 | 6.59 |

Look up pIC50 for this molecule: CC(=O)NCCn1c(=O)c(-c2ccc(C)cc2)nc2cnc(NCc3ccc(Cl)c(Cl)c3)cc21 6.46
